# Tested on: velvetleaf
# ASSAY COMMENT: Test Example 1: foliage treatment, upland pot test
# Format: in vivo, Abutilon theophrasti MEDIC.
# ASSAY SETUP: active ingredient 1000 g/ha, observed 18th to 23rd day, 0 = non-treated, 100 = complete kill
RECORDED METRIC: Growth controlling degree (%) Velvetleaf
Answer format: numeric, % implied, no suffix.

[[record]]
molecule = "CCN(C(=O)Cc1cccc(C(F)(F)F)c1F)C(c1cnccc1C(F)(F)F)C(C)C (stereo not shown) [I-76]"
tgt = "velvetleaf"
recorded_metric = "Growth controlling degree (%) Velvetleaf"
data_value = 90

[[record]]
molecule = "CC(C)C(c1cnccc1Cl)N(C)C(=O)Cc1ccc(F)c(F)c1 (stereo not shown) [I-73]"
tgt = "velvetleaf"
recorded_metric = "Growth controlling degree (%) Velvetleaf"
data_value = 90

[[record]]
molecule = "CC(C)C(c1cnccc1C(F)(F)F)N(C)C(=O)Cc1ccc(Br)cc1 (stereo not shown) [I-10]"
tgt = "velvetleaf"
recorded_metric = "Growth controlling degree (%) Velvetleaf"
data_value = 95

[[record]]
molecule = "CCC(=O)N(CC)C(c1cnccc1C(F)(F)F)c1cccc2ccccc12 (stereo not shown) [I-44]"
tgt = "velvetleaf"
recorded_metric = "Growth controlling degree (%) Velvetleaf"
data_value = 95

[[record]]
molecule = "CCC(=O)N(C)C(c1cnccc1C(F)(F)F)c1cccc2ccccc12 (stereo not shown) [I-43]"
tgt = "velvetleaf"
recorded_metric = "Growth controlling degree (%) Velvetleaf"
data_value = 95


Exam item: Look at this molecule and give its reported Growth controlling degree (%) Velvetleaf. CCN(C(=O)Cc1cccc(C(F)(F)F)c1)C(c1cnccc1C(F)(F)F)C(C)C (stereo not shown) [I-75]
Marked response: 90

Exam item: Look at this molecule and give its reported Growth controlling degree (%) Velvetleaf. CC(C)C(c1cnccc1Cl)N(C)C(=O)Cc1cccc(C(F)(F)F)c1F (stereo not shown) [I-74]
Marked response: 90
